Hello, the source for this data is patent US20020049249A1, in case you need it.

- Tested on: PPAR-γ (Homo sapiens)
- Construct: expressed in transfected cells; host or cells: HeLa cells
- Sequence (P37231 whole entry, species assumed): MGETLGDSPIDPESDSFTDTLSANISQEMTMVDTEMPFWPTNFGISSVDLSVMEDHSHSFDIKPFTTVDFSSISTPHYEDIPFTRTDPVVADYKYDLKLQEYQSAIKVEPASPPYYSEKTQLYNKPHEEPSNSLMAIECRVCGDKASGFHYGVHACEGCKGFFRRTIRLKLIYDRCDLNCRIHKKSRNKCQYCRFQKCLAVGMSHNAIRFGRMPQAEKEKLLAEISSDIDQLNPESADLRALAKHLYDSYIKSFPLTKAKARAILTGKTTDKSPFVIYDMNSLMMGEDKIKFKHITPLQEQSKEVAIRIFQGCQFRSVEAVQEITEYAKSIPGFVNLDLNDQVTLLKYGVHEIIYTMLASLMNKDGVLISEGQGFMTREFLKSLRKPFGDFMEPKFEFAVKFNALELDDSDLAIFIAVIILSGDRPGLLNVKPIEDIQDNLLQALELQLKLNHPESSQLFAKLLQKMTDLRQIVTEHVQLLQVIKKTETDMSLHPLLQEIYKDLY
- Assay remarks: PPAR-γ transactivation test (luciferase reporter, cotransfected HeLa cells)
- Format: cell-based
- Parameters: concentration or dose not given beside the values
- Assay context: HeLa cells cotransfected with receptor vector and PPRE-luciferase reporter, 24 hours; relative to Reference 2
Attribute: % of activation, γ
Give a bare numeral; the unit % is implied.

These recorded examples may help you get a feel for the data.
[
  {
    "Molecule": "CC1(C)CCC(C)(C)c2cc(Nc3ccc4cc(C(=O)O)ccc4c3)ccc21",
    "% of activation, γ (%)": 69
  },
  {
    "Molecule": "CC1(C)CCC(C)(C)c2cc(Oc3ccc4cc(C(=O)O)ccc4c3)ccc21",
    "% of activation, γ (%)": 23
  },
  {
    "Molecule": "CC1=NC(=Cc2ccc(Oc3ccc4c(c3)C(C)(C)CCC4(C)C)cc2)C(=O)O1 [Comparative Example 1, reference compound]",
    "% of activation, γ (%)": 0
  }
]

Tell me reported % of activation, γ for "CC(=CC(=O)O)c1ccc(Oc2ccc3c(c2)C(C)(C)CCC3(C)C)cc1" , tested with PPAR-γ (Homo sapiens).
0

And the next one, CC(=O)NC(=Cc1ccc(Oc2ccc3c(c2)C(C)(C)CCC3(C)C)cc1)C(=O)O [Comparative Example 2, reference compound] ?
4

Note, next up: "CC1(C)CCC(C)(C)c2cc(Sc3ccc4cc(C(=O)O)ccc4c3)ccc21"
40

Also check "CC1(C)CCC(C)(C)c2cc(Oc3ccc(C=CC(=O)O)cc3)ccc21"
18

----------
- Tested on: PPAR-α (Homo sapiens, UniProt Q07869)
- Construct: expressed in transfected cells; host or cells: HeLa cells
- Sequence (Q07869 1-468): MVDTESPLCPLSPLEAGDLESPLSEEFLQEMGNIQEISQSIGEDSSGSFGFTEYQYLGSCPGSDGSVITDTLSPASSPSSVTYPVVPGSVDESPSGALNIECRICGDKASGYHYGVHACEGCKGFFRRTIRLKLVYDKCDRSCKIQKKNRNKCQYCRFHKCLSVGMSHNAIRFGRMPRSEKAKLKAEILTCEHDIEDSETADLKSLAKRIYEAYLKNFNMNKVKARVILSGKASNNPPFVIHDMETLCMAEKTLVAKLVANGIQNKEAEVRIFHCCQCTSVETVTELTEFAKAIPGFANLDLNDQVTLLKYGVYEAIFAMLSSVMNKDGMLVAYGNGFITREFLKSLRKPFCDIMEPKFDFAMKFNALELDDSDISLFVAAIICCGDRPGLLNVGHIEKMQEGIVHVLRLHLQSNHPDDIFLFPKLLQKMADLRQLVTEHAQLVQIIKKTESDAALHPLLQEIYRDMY
- Assay remarks: PPAR-α transactivation test (luciferase reporter, cotransfected HeLa cells)
- Assay type: cell-based
- Parameters: concentration or dose not given beside the values
- Assay context: HeLa cells cotransfected with receptor vector and PPRE-luciferase reporter, 24 hours; relative to Reference 1
Entries and their % of activation, α
Express it in %; write the number only.

[
  {
    "Compound": "CC1(C)CCC(C)(C)c2cc(Oc3ccc(C=CC(=O)O)cc3)ccc21",
    "Quantity measured": "% of activation, α",
    "Data value": 12
  },
  {
    "Compound": "CC1(C)CCC(C)(C)c2cc(Nc3ccc4cc(C(=O)O)ccc4c3)ccc21",
    "Quantity measured": "% of activation, α",
    "Data value": 25
  },
  {
    "Compound": "CC(=O)NC(=Cc1ccc(Oc2ccc3c(c2)C(C)(C)CCC3(C)C)cc1)C(=O)O [Comparative Example 2, reference compound]",
    "Quantity measured": "% of activation, α",
    "Data value": 7
  }
]

With those in mind, consider the next compound.
Recorded % of activation, α of "CC1(C)CCC(C)(C)c2cc(Oc3ccc4cc(C(=O)O)ccc4c3)ccc21" , please.
18
